Biological target: T1, human BLyS (full length, arginine to histidine at position 132) on CHO-K1 cells (human, UniProt Q9Y275 1-285)
T1 construct: also called hBLyS; CHO-K1 hBLyS
T1 sequence (Q9Y275 whole entry R130H): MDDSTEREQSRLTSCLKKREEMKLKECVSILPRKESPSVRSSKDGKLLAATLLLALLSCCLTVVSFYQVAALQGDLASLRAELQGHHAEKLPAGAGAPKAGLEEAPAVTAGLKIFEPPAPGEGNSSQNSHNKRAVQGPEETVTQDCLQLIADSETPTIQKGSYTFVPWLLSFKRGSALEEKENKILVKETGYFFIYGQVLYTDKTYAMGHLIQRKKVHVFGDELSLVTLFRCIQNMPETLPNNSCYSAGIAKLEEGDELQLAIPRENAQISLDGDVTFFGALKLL
Assay: flow cytometry, CHO-K1 hBLyS cells, antibody 2.67 nM
Each entry below carries its reported MFI.
measured-parameter: MFI (MFI)

- 78C11D2D12 (antibody, V domains shown, Mouse hybridoma monoclonal antibody purified on Protein G) VH: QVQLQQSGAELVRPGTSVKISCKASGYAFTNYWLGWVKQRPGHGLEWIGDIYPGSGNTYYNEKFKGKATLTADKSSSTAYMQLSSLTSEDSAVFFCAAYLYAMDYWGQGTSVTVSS VL: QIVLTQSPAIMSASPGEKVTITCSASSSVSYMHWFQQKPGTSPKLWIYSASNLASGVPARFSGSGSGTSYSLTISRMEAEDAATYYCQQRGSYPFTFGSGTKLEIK: 300
- 2-1G11 (antibody, V domains shown, From a human naive scFv phage library; also called human BLyS antibody 2-1G11) VH: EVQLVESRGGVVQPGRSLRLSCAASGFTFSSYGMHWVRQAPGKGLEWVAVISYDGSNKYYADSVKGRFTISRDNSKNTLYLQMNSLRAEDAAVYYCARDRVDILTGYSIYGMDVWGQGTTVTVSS VL: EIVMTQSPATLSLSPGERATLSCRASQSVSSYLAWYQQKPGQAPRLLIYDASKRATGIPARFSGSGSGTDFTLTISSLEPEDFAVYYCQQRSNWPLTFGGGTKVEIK: 627
- 35E6F7C3 (antibody, V domains shown, Mouse hybridoma monoclonal antibody purified on Protein G) VH: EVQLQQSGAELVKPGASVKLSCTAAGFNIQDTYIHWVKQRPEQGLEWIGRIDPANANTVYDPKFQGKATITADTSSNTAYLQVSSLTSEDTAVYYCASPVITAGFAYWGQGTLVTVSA VL: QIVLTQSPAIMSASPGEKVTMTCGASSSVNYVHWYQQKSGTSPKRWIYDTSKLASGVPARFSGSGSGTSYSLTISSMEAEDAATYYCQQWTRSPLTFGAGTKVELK: 437

Reference source: patent US20210347873A1
